Numbers sourced from PubChem BioAssay AID1159580.

assay: chemical genetic growth profiling, strain panel (AID 1159580);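 note: tested at 20 µM; growth read once vehicle control cultures reached saturation at 30 °C; 1 = growth at the plate median or of vehicle wells; lower values mean less growth of the strain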; conditions: S. cerevisiae deletion strains, growth OD, locus YJR066W, strain TOR1, stronger effect = lower value
Among all 5,500 compounds or so, about 2,000 (36%) were called active. Another 18% or so got no clear call; they are omitted. The list shows a part of the results.
Hi there, I'd appreciate the recorded normalized growth for every entry that follows.
# answer = number (no unit)

The reported normalized growth of the molecule "CCOC(N)=O" was 0.959

Sure, the documented normalized growth for "COCCOc1ccccc1NC(=S)SCCSC(=S)Nc1ccccc1OCCOC" is 1.03

// recorded normalized growth for "CC(=O)OC/C=C(C)/C=C/C=C(C)/C=C/C1=C(C)CCCC1(C)C" : 0.959

For reference, reported normalized growth for "CC(C)(O)C#Cc1ccc(/C=N\Nc2ccccc2)cc1" stands at 0.644

Measured normalized growth, CCCNC(C)C(=O)Nc1ccccc1C (stereo unspecified) : 0.979

get_value(item= O=C(NC(Cc1cc(=O)[nH]c2ccccc12)C(=O)O)c1ccc(Cl)cc1 (stereo unspecified) , readout=normalized growth) returns 0.913

Memo: "NC(=NC(=O)c1ccc(Cl)cc1)c1cccs1" , reported normalized growth: 0.884

Lookup result for c1ccc(-c2ccc(C(c3ccccc3)n3ccnc3)cc2)cc1 (stereo unspecified) ; measured normalized growth: 0.0151

Kindly note the recorded normalized growth for CC1(C)CC2C1CCC1(C)OC1CCC2(C)O (stereo unspecified) , which is 0.961

get_value(item= "COc1cc(C(=O)Oc2c(Cl)cc(Cl)cc2C=Nc2cccc([N+](=O)[O-])c2)cc(OC)c1OC" , readout=normalized growth) returns 0.427

For reference, reported normalized growth for Nc1c(Br)cc(Br)cc1CNC1CCC(O)CC1 (stereo unspecified) stands at 0.936

// "CCCN(CCC)CCc1cccc2c1CC(=O)N2" : normalized growth value = 0.94

Record "CN(Cc1cc(Br)cc(Br)c1N)C1CCCCC1" . Reported normalized growth: 0.81

Value of normalized growth reported for the molecule "O=C(O)c1cc(O)c(O)c(O)c1" is 0.929

The molecule identified as CC1(C)CC2C1CCC1(C)OC2(C)CCC1O (stereo unspecified) registered its normalized growth at 0.959

"O=C(/C=C/c1ccc(O)c(O)c1)O[C@@H]1C[C@](O)(C(=O)O)C[C@@H](O)[C@H]1O" yielded normalized growth of 0.947

normalized growth in this record for "OC/C=C/c1ccc(O)c(O)c1" : 0.946

The measured normalized growth associated with "CC1(C)O[C@@H]2[C@@H](CO[C@@]3(COS(N)(=O)=O)OC(C)(C)O[C@@H]23)O1" reads 0.942

Entry C#C[C@]1(O)CCC2C3CCc4cc(OC)ccc4C3CC[C@@]21C (stereo partly specified) ; normalized growth = 0.933

// recorded normalized growth for CC1(C)O[C@@H]2CC3C4CCC5=CC(=O)C=C[C@]5(C)C4[C@@H](O)C[C@]3(C)[C@]2(C(=O)CO)O1 (stereo partly specified) : 0.95

The molecule listed as OC(c1ccc(C(F)(F)F)cc1)c1cccc(C(F)(F)F)c1 (stereo unspecified) has a reported normalized growth of 1.05

Memo: "O=S(=O)(Nc1cc(C(F)(F)F)ccc1F)c1cc(C(F)(F)F)ccc1Cl" , reported normalized growth: 0.82

// CC1=CC(=O)CC(C)(C)C1(O)/C=C/C(C)=C\C(=O)O (stereo unspecified) : normalized growth value = 0.929

Given item "O=C1O[C@@H](CO)[C@H](O)[C@@H](O)[C@@H]1O" , the value recorded as its normalized growth is 0.965

The recorded normalized growth for "COc1cc(C(=O)O)cc(OC)c1O" is 0.96

The value of normalized growth measured for the molecule "O=c1cccc2n1C[C@H]1CNCC2C1" turned out to be 0.988

Reported normalized growth ( "CC1=C(/C=C/C(C)=C/C=C/C(C)=C\C(=O)O)C(C)(C)CCC1" ) = 0.972

Per the records, this molecule ( "Nc1ccc(S(=O)(=O)Nc2nccs2)cc1" ) has normalized growth equal to 0.939

Short answer for CC(=O)OCC(=O)[C@@]12OC(C)(C)O[C@@H]1CC1C3C[C@H](F)C4=CC(=O)C=C[C@]4(C)[C@@]3(F)[C@@H](O)C[C@@]12C (stereo partly specified) : normalized growth was 0.937

The molecule "O=c1ccn([C@@H]2O[C@H](COP(=O)(O)OP(=O)(O)OP(=O)(O)O)[C@@H](O)[C@H]2O)c(=O)[nH]1" showed normalized growth equal to 1.01

For reference, reported normalized growth for "O=C(O)c1cc(=O)c(O)c2c(O)c(O)ccc2c1" stands at 0.892

Looking up "COc1ccc2c(c1O)-c1c(OC)c(OC)cc3c1[C@H](C2)N(C)CC3" , I found its normalized growth recorded as 0.947

Reported normalized growth ( CC(=O)Oc1cc(C)c2c(c1C(OC(C)=O)OC(C)=O)Oc1c(c(C)c(OC(C)=O)c3c1C(OC(C)=O)OC3=O)OC2=O (stereo unspecified) ) = 0.889

Looking up "CCOC(=O)C1=C[C@]2(CC)CCCN3CCc4c(n1c1ccccc41)[C@@H]32" , I see its normalized growth listed as 0.967

Entry under test: C[C@]12CCC3c4ccc(OS(=O)(=O)O)cc4CCC3C1CCC2=O (stereo partly specified) . Its normalized growth was 0.942

Item: C#C[C@]1(O)CCC2C3CCc4cc(O)ccc4C3CC[C@@]21C (stereo partly specified) | normalized growth: 0.81

What the record says about "c1cc2c(cc1[C@H]1OC[C@H]3[C@@H]1CO[C@H]3c1ccc3c(c1)OCO3)OCO2" : normalized growth is 0.888

Documented normalized growth of CCOC(=O)CCCCCCCCCCCCC1C=CCC1 (stereo unspecified) : 0.902

get_value(item= "O=C(Nc1cccc(C(F)(F)F)c1)Oc1ccc(F)cc1Cl" , readout=normalized growth) returns 1.04

Entry O=C(O)CCCCCCCCCCCCC1C=CCC1 (stereo unspecified) ; normalized growth = 0.931

Looking up "O=C(O)CCCO" , I found its normalized growth recorded as 0.976

// normalized growth lookup, molecule = "NCCCCN=C(N)N" , result: 0.973

So, "CCCCCc1ccc(S(=O)(=O)Nc2ccc3c(c2)C(=O)OC3)cc1" ? Its normalized growth was 1.02

get_value(item= "CCOC(=O)c1ccc(N)cc1" , readout=normalized growth) returns 0.966

The molecule identified as CN1CCc2cccc3c2C1Cc1ccc(O)c(O)c1-3 (stereo unspecified) registered its normalized growth at 0.989

Query "CC(C)(O)C#Cc1ccc(/C=N\Nc2c(Cl)cc(Cl)cc2Cl)cc1" yields normalized growth of 0.728
